Just for reference, patent US20240207429A1 is where these values come from.

# OD450 per entry
target: T1, Human FOLR1 Protein His Tag (ACRO-FO1-H52H1) (human, UniProt P15328 25-233); assay: ELISA, supernatant diluted 1x
T1 construct: not shown: His tag
T1 sequence (P15328 25-233 limits assumed): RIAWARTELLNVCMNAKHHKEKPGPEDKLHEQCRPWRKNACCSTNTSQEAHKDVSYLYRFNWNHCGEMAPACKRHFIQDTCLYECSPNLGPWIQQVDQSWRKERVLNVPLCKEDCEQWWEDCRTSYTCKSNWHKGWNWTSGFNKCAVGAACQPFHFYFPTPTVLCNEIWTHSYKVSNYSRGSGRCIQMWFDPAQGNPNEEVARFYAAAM
Form field (numeric): enter value without unit.

// worked examples, OD450 included
[
  {
    "binder": "F1 (antibody, V domains shown, also called clone F1; anti-FOLR1 antibody F1) VH: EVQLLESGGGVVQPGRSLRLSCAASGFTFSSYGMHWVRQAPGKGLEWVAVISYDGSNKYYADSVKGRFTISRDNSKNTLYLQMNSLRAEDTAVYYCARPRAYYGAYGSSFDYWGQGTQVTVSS VL: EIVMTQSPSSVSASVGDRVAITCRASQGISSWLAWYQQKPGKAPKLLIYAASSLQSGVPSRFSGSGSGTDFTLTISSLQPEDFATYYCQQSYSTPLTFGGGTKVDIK",
    "OD450": 1.66
  },
  {
    "binder": "F112 (antibody, V domains shown, also called clone F112; anti-FOLR1 antibody F112) VH: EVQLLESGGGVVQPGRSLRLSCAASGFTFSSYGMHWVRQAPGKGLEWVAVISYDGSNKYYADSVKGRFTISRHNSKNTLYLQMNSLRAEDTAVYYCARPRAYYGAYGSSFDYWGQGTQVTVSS VL: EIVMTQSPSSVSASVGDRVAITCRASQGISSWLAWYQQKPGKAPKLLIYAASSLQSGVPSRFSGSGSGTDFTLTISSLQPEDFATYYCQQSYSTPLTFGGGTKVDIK",
    "OD450": 1.56
  },
  {
    "binder": "F131 (antibody, V domains shown, also called clone F131; F131 mAb) VH: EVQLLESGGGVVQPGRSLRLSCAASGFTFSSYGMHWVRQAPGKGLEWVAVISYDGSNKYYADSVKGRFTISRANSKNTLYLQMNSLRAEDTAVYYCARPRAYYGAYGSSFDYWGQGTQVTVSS VL: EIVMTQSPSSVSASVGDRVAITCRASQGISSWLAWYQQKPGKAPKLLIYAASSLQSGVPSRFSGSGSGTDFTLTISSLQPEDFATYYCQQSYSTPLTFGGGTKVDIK",
    "OD450": 1.61
  },
  {
    "binder": "F138 (antibody, V domains shown, also called clone F138; anti-FOLR1 antibody F138) VH: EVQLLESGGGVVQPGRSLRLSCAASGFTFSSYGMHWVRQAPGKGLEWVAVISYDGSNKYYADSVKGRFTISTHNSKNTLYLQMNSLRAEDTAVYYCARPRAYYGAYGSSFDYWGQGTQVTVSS VL: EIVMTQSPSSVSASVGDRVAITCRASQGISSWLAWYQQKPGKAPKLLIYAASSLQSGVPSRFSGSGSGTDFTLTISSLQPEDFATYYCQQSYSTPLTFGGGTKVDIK",
    "OD450": 1.64
  },
  {
    "binder": "F100 (antibody, V domains shown, also called clone F100; anti-FOLR1 antibody F100) VH: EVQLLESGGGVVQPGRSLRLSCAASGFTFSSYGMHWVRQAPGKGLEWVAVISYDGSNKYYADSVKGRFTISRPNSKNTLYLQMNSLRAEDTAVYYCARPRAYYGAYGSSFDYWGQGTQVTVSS VL: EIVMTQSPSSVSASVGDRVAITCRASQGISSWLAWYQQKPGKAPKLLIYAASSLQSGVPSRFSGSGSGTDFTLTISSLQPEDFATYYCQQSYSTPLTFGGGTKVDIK",
    "OD450": 1.61
  },
  {
    "binder": "F8 (antibody, V domains shown, also called clone F8; anti-FOLR1 antibody F8) VH: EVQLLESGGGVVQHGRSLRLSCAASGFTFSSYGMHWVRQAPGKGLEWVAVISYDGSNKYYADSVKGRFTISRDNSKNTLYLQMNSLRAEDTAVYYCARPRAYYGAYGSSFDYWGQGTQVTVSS VL: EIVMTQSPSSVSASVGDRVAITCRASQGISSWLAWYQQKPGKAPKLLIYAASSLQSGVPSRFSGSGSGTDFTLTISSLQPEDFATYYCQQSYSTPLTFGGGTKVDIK",
    "OD450": 1.67
  },
  {
    "binder": "F48 (antibody, V domains shown, also called clone F48; anti-FOLR1 antibody F48) VH: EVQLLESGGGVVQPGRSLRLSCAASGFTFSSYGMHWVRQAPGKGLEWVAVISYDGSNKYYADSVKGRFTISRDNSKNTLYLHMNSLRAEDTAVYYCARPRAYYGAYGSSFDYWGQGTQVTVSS VL: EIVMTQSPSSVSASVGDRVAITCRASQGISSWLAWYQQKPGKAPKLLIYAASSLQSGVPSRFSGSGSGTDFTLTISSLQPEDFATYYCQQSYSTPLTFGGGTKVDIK",
    "OD450": 1.56
  },
  {
    "binder": "F26 (antibody, V domains shown, also called clone F26; anti-FOLR1 antibody F26) VH: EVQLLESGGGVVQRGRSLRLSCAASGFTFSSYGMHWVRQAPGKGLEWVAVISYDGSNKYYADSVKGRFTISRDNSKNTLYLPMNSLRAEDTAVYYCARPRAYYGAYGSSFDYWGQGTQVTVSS VL: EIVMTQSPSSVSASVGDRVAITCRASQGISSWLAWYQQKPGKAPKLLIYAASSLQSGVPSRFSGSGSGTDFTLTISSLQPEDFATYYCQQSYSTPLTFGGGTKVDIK",
    "OD450": 1.64
  },
  {
    "binder": "F40 (antibody, V domains shown, also called clone F40; anti-FOLR1 antibody F40) VH: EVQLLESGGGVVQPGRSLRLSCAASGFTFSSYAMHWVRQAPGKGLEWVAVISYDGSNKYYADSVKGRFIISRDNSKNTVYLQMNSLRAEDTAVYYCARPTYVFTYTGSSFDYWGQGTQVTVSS VL: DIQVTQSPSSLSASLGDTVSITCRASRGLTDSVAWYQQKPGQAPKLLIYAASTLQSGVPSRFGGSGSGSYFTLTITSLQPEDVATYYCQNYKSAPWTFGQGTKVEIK",
    "OD450": 0.811
  }
]

-- ask Using the record for F123 (antibody, V domains shown, also called clone F123; anti-FOLR1 antibody F123) VH: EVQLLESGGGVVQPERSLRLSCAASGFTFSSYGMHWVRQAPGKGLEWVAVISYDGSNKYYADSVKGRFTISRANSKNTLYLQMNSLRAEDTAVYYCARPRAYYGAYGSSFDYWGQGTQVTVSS VL: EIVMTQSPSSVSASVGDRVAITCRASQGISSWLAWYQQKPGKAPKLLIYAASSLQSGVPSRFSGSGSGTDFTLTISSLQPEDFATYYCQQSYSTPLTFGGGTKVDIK , report its OD450.
-- reply 1.72
